B1: glmS ribozyme (parent)
chain: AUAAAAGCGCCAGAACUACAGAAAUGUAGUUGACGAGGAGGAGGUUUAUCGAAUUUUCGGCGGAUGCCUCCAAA

Variants of: B1
Experiment: self-cleavage kobs at 640 uM GlcN6P; higher = faster cleavage; RNA array
Conditions: with glucosamine-6-phosphate
Variants at the floor of the assay were thinned out.
Experimental Endpoint: self-cleavage kobs at 640 uM GlcN6P

Worked examples, 2 variants total:
G32U G40U
1.68e-05 s⁻¹
G13U C34G
< 1e-05 s⁻¹

Give the reported self-cleavage kobs at 640 uM GlcN6P for this variant. C10U U45G
< 1e-05 s⁻¹

Note down self-cleavage kobs at 640 uM GlcN6P recorded for G7U C10A A15U
< 1e-05 s⁻¹

Query self-cleavage kobs at 640 uM GlcN6P for G7A A14C A36C A64U
< 1e-05 s⁻¹

Please give the documented self-cleavage kobs at 640 uM GlcN6P of G13A U56G
0.000128 s⁻¹

Query self-cleavage kobs at 640 uM GlcN6P for C11U A15C A33G G44U U49C A64C C70U
< 1e-05 s⁻¹
